Consider the following variants and their measured self-cleavage readings.
B1: Osa-1-4 twister ribozyme (parent)
chain: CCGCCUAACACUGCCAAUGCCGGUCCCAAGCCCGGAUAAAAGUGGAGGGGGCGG

- Variants of: B1
- TEST: self-cleavage, relative activity (ratio to wild type); higher = more cleavage; co-transcriptional
// no unit string in output, number only

Please review the following examples before continuing.
>>> readout_value("A36U G30C")
0.06
>>> readout_value("C27A G47A")
0.24

Form: variant = C31G G19A ; self-cleavage = 0.08

Form: variant = C25G G54A ; self-cleavage = 0.11

Form: variant = C21A G45U ; self-cleavage = 0.05

Form: variant = A38C G30C ; self-cleavage = 0.05

Form: variant = A29C G44C ; self-cleavage = 0.05

Form: variant = G44C U18C ; self-cleavage = 0.83

Form: variant = G47A U24C ; self-cleavage = 0.04
